- stated-conditions: 313.15 K; 101 kPa; Liquid; Pycnometric method
measured-attribute: mass density (kg/m3)
One number for each entry, in kg/m3.

Observe how each entry below is paired with its result.
>  <molecule>
OCCCCO [1,4-butanediol]

>  <mass density [kg/m3]>
1003.7

$$$$
>  <molecule>
CCC(C)O (centres undefined) [butan-2-ol]

>  <mass density [kg/m3]>
790.1

$$$$
>  <molecule>
OCCOCCO [diethylene glycol]

>  <mass density [kg/m3]>
1102.5

$$$$

Next, consider the following molecule.
[in] Let me know recorded mass density for CCCCO [butan-1-ol] , thanks.
[out] 794.5
